From: patent US20130216590A1

Target: HIV-1 RT (Human immunodeficiency virus type 1 group M subtype B, UniProt P04585)
Value Type: pIC50
Give bare numbers, as −log10 of the molar value.

Quick note, pIC50 for C[C@H](Cn1cnc2c(N)ncnc21)OCP(=O)(O)OP(=O)(O)OP(=O)(O)O [Tenofovir-DP] landed at 5.37

* * *

Biological target: HSV-1 DNA polymerase (Human herpesvirus 1)
Construct: gift of M. W. Wathen (Pfizer, Kalamazoo, Mich.)
Sequence (P04293 whole entry): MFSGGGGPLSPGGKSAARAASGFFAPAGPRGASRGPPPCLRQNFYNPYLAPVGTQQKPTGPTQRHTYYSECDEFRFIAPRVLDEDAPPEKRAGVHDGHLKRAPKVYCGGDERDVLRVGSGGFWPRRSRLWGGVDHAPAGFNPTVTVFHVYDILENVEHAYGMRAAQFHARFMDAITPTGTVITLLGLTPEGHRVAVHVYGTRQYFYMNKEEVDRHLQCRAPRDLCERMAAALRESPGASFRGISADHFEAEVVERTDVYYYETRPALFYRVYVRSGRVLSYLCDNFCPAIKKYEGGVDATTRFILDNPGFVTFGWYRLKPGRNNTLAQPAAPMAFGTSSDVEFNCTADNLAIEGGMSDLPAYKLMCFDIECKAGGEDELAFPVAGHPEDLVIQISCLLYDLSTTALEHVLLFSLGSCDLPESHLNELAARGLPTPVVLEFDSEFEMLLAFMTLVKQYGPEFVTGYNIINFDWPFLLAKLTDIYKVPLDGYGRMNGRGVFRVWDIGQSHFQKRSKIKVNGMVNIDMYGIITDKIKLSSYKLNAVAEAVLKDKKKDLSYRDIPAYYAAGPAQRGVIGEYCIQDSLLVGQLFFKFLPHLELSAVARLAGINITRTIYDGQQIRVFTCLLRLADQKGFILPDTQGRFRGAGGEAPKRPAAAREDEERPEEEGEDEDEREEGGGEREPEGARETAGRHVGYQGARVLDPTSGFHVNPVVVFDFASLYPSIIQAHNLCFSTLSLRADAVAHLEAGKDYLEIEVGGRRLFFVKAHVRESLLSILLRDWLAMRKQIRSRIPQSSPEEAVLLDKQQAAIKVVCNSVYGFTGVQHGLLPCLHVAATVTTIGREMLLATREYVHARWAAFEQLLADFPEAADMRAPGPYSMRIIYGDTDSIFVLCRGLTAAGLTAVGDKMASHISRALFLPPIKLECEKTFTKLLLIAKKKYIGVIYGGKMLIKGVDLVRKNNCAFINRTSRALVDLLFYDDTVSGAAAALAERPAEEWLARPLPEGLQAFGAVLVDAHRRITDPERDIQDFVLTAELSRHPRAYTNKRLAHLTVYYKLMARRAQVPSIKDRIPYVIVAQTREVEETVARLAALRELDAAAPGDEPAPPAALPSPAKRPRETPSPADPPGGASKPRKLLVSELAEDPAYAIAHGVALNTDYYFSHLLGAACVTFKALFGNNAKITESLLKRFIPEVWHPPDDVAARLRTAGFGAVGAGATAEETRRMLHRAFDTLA
Assay: HSV-1 DNA polymerase assay
Settings: activated calf thymus DNA primer/template; [2,8-3H]dATP competing substrate
Value Type: IC50 (nM)
Numbers only, in nM.

Input C[C@H](Cn1cnc2c(N)ncnc21)OCP(=O)(O)OP(=O)(O)OP(=O)(O)O [Tenofovir-DP] . Output IC50: 1300
